EXPERIMENT_SUMMARY: Inhibition of LFA1 expressed in human JY cells interaction with ICAM1-IG expressed in human HeLa cell monolayer after 45 mins by cell adhesion assay
RECORDED_ENDPOINT: IC50 (nM)
Give the value, in units of nM, as a plain number.

Problem: Note down IC50 recorded for "CC(C)(O)/C=C/C(=O)[C@@](C)(O)[C@H]1[C@H](O)C[C@@]2(C)[C@@H]3CC=C4[C@@H](C[C@H](O)C(=O)C4(C)C)[C@]3(C)C(=O)C[C@]12C"
Result: 1360

* * *

SYSTEM: Integrin alpha-L (Homo sapiens)
Sequence (P20701 whole entry): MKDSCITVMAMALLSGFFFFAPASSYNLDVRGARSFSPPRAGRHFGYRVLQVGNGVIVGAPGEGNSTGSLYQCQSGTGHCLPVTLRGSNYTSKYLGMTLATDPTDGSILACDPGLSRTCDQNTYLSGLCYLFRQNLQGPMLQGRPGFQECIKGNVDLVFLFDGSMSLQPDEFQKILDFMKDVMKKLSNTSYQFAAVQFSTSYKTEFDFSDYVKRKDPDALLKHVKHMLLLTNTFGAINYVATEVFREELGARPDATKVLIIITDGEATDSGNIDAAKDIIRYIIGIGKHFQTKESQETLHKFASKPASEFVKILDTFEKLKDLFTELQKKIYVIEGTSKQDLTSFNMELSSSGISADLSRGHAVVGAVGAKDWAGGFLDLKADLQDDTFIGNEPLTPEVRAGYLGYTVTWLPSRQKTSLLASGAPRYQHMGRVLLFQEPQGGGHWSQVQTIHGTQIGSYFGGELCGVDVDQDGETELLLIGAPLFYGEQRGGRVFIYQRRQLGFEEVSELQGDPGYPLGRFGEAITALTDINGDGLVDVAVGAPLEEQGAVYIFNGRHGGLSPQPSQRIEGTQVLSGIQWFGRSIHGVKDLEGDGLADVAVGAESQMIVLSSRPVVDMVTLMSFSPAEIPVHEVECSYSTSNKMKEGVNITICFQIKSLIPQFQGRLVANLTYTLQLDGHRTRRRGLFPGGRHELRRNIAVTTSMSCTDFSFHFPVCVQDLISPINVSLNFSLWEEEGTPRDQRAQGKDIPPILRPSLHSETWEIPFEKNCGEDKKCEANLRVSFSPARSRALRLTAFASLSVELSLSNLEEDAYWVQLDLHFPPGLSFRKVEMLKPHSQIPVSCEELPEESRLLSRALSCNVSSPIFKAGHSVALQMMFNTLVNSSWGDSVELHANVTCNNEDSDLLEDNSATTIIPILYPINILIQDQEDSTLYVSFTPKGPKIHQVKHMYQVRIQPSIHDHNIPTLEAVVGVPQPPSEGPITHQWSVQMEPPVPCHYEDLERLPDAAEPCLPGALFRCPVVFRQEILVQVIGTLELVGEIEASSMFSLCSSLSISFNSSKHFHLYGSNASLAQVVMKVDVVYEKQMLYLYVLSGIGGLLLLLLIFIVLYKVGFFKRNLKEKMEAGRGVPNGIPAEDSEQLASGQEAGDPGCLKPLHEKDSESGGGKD
EXPERIMENT_SUMMARY: Inhibition of LFA1 expressed in human JY cells interaction with ICAM1-IG expressed in human HeLa cell monolayer after 45 mins by cell adhesion assay
RECORDED_ENDPOINT: pIC50
// returns pIC50 (minus log10 of molar concentration), number only

Problem: Note down pIC50 recorded for "CC(C)(O)C=CC(=O)[C@](C)(O)[C@H]1[C@H](O)C[C@@]2(C)[C@@H]3CC=C4[C@@H](CC(=O)C(=O)C4(C)C)[C@]3(C)C(=O)C[C@]12C"
Result: 6.02
